assay: clinical; conditions: human, in vivo, iv
Readings of MRT for the listed compounds
# output: bare number, implied unit h

Completed entries (count: 8):
CC(C)(C)NCC(O)c1ccc(O)c(CO)c1 (configuration not stated) [ALBUTEROL] | 4.1
N[C@@H](CC(=O)N1CCn2c(nnc2C(F)(F)F)C1)Cc1cc(F)c(F)cc1F [SITAGLIPTIN] | 7.78
COc1ccc2c(c1)N(C[C@H](C)CN(C)C)c1ccccc1S2 [LEVOMEPROMAZINE] | 21
CN(C)CCCN1c2ccccc2Sc2ccc(Cl)cc21 [CHLORPROMAZINE] | 10
CC(C)NCC(O)COc1ccc(CCOCC2CC2)cc1 (configuration not stated) [BETAXOLOL] | 24
CN1CC[C@H](c2c(O)cc(O)c3c(=O)cc(-c4ccccc4Cl)oc23)[C@H](O)C1 [ALVOCIDIB] | 4
CCCNC(C)C(=O)Nc1ccccc1C (configuration not stated) [PRILOCAINE] | 2.2
CCC(=O)O[C@](Cc1ccccc1)(c1ccccc1)[C@H](C)CN(C)C [PROPOXYPHENE] | 13.3

# MRT (compound: COc1cc2c3cc1Oc1cc(ccc1O)C[C@@H]1c4c(cc(OC)c(O)c4Oc4ccc(cc4)C[C@@H]3N(C)CC2)CC[N+]1(C)C.[Cl-] ) is 2.2

# MRT (compound: CC(C)(C)NC(=O)[C@H]1CC[C@H]2[C@@H]3CC=C4C=C(C(=O)O)CC[C@]4(C)[C@H]3CC[C@]12C [EPRISTERIDE] ) is 27

----------
test: clinical; details: human, in vivo, iv
result type: log10(MRT) (log10 of the value in h)
Lab note - MRT converted to log10 from values in h.

Completed entries (count: 4):
CNC1=Nc2ccc(Cl)cc2C(c2ccccc2)=[N+]([O-])C1 [CHLORDIAZEPOXIDE] | 1.04
CCN1CCC[C@H]1CNC(=O)c1c(OC)ccc(Br)c1OC [REMOXIPRIDE] | 0.81
CN(C)CCc1c[nH]c2ccc(CS(=O)(=O)N3CCCC3)cc12 | 0.62
COc1nc(N)nc2c1ncn2[C@@H]1O[C@H](CO)[C@@H](O)[C@@H]1O | 0.00

Now for another entry.
# log10(MRT) (compound: CNCC[C@@H](Oc1ccccc1C)c1ccccc1 ) is 0.18

----------
test: clinical; settings: human, in vivo, iv, t1/2
Readings of log10 of half-life for the listed compounds
Lab note - half-life converted to log10 from values in h.

CCOC(=O)C1(c2ccccc2)CCC=CC1N(C)C (centres undefined) | 0.70

# log10 of half-life (compound: Nc1ccn([C@@H]2CO[C@H](CO)O2)c(=O)n1 ) is 1.91

# log10 of half-life (compound: C=C[C@@]1(O)C[N+]2(C)CC[C@H]1C[C@@H]2[C@@H](O)c1ccnc2ccc(OC)cc12 ) is 0.83

----------
Readings of fraction unbound for the listed molecules
test: clinical; conditions: human, in vivo, iv
Numbered stars: 1 amine (or outer) side, 2 acyl side, 3 side chain; on linkers, the order of the positions; unused ones are H or OH. Bridge positions count the residues as written; N and C are the ends. Square brackets hold non-standard residues; d marks the D form. Peptide text beside a SMILES is read from it. * marks the point of attachment. hTyr(3S-OH,4S-OH,3'-OSO3H) = N[C@H](C(=O)O)[C@H](O)[C@@H](O)c1ccc(O)c(OS(=O)(=O)O)c1; Orn(4R-OH,5R-OH) = O=C([C@H](C[C@@H](O)[C@@H](O)N[*:3])N[*:1])[*:2]; Pro(3S-OH,4S-Me) = C[C@H]1CN[C@H](C(=O)O)[C@H]1O; X1 = CCCCCOc1ccc(-c2cc(-c3ccc(C(=O)*)cc3)no2)cc1; Gln(3R-OH) = NC(=O)C[C@@H](O)[C@H](N)C(=O)O; Hyp = O=C(O)[C@@H]1C[C@@H](O)CN1

Completed entries (count: 4):
O=[N+]([O-])O[C@H]1CO[C@H]2[C@@H]1OC[C@H]2O[N+](=O)[O-] [ISOSORBIDE DINITRATE] | 0.72
CCCCCOc1ccc(-c2cc(-c3ccc(C(=O)N[C@H]4C[C@@H](O)[C@@H](O)NC(=O)[C@@H]5[C@@H](O)[C@@H](C)CN5C(=O)[C@H]([C@H](O)CC(N)=O)NC(=O)[C@H]([C@H](O)[C@@H](O)c5ccc(O)c(OS(=O)(=O)O)c5)NC(=O)[C@@H]5C[C@@H](O)CN5C(=O)[C@H]([C@@H](C)O)NC4=O)cc3)no2)cc1 [MICAFUNGIN] (X1-[Orn(4R-OH,5R-OH)]T[Hyp][hTyr(3S-OH,4S-OH,3'-OSO3H)][Gln(3R-OH)][Pro(3S-OH,4S-Me)]; lactam 1-C) | 0.0023
Cc1nnc2n1-c1sc(Br)cc1C(c1ccccc1Cl)=NC2 [BROTIZOLAM] | 0.092
CN1CCCC(n2nc(Cc3ccc(Cl)cc3)c3ccccc3c2=O)CC1 (stereo not given) [AZELASTINE] | 0.17

Now for another entry.
# fraction unbound (molecule: Cc1ccc(-c2ncc(Cl)cc2-c2ccc(S(C)(=O)=O)cc2)cn1 [ETORICOXIB] ) is 0.081

----------
assay: clinical; settings: human, in vivo, iv, t1/2
Readings of log10 half-life for the listed molecules
Lab note - half-life converted to log10 from values in h.

# log10 half-life (molecule: Nc1nc2c(ncn2CCC(CO)CO)c(=O)[nH]1 ) is 0.32

----------
Readings of fraction unbound for the listed compounds
experiment: clinical; conditions: human, in vivo, iv
Bridge positions count the residues as written; N and C are the ends. Square brackets hold non-standard residues; d marks the D form. Peptide text beside a SMILES is read from it. hArg = N=C(N)NCCCC[C@H](N)C(=O)O; Mpa = O=C(O)CCS
Answer using only a numeral; do not append any unit.

CC[C@@]1(O)C(=O)OCc2c1cc1n(c2=O)Cc2cc3c(CN(C)C)c(O)ccc3nc2-1 | 0.65

# fraction unbound (compound: CCN(C)C(=O)Oc1cccc([C@H](C)N(C)C)c1 ) is 0.6

# fraction unbound (compound: O=C1CN(/N=C/c2ccc([N+](=O)[O-])o2)C(=O)N1 ) is 0.17

# fraction unbound (compound: N=C(N)NCCCC[C@@H]1NC(=O)CCSSC[C@@H](C(N)=O)NC(=O)[C@@H]2CCCN2C(=O)[C@H](Cc2c[nH]c3ccccc23)NC(=O)[C@H](CC(=O)O)NC(=O)CNC1=O [EPTIFIBATIDE] ([Mpa][hArg]GDWPC-NH2; disulfide 1-7) ) is 0.75

# fraction unbound (compound: CC(C)c1cccc(C(C)C)c1O ) is 0.016

# fraction unbound (compound: CCNC(=O)[C@@H]1CCCN1C(=O)[C@H](CCCNC(=N)N)NC(=O)[C@H](CC(C)C)NC(=O)[C@@H](CC(C)C)NC(=O)[C@H](Cc1ccc(O)cc1)NC(=O)[C@H](CO)NC(=O)[C@H](Cc1c[nH]c2ccccc12)NC(=O)[C@H](Cc1c[nH]cn1)NC(=O)[C@@H]1CCC(=O)N1 [LEUPROLIDE] ) is 0.54

# fraction unbound (compound: COc1cc2c3cc1Oc1cc(ccc1O)C[C@@H]1c4c(cc(OC)c(O)c4Oc4ccc(cc4)C[C@@H]3N(C)CC2)CC[N+]1(C)C.[Cl-] ) is 0.58

----------
Readings of log10(half-life) for the listed molecules
assay: clinical; conditions: human, in vivo, iv, t1/2
Lab note - half-life converted to log10 from values in h.

Completed entries (count: 5):
CNC(=C[N+](=O)[O-])NCCSCc1csc(CN(C)C)n1 [NIZATIDINE] | 0.18
NC(=O)CC[C@@H]1NC(=O)[C@H](Cc2ccccc2)NC(=O)[C@H](Cc2ccc(O)cc2)NC(=O)CCSSC[C@@H](C(=O)N2CCC[C@H]2C(=O)N[C@H](CCCN=C(N)N)C(=O)NCC(N)=O)NC(=O)[C@H](CC(N)=O)NC1=O [DESMOPRESSIN] | 0.48
CCN(CC)CCS(=O)(=O)[C@@H]1CCN2C(=O)c3coc(n3)CC(=O)C[C@H](O)/C=C(C)/C=C/CNC(=O)/C=C/[C@@H](C)[C@@H](C(C)C)OC(=O)[C@@H]12 [DALFOPRISTIN] | -0.13
COc1ccc(C(=O)Nc2ccccc2CCC2CCCCN2C)cc1 (stereo unspecified) [ENCAINIDE] | 0.41
CC(CC(c1ccccc1)c1ccccc1)NC(C)(C)C (stereo unspecified) [TERODILINE] | 1.75

# log10(half-life) (molecule: C[C@H]1O[C@H](O[C@H]2[C@H](O)[C@@H](O)[C@@H](O[C@H]3[C@H](O)[C@@H](O)C(O)O[C@@H]3CO)O[C@@H]2CO)[C@H](O)[C@@H](O)[C@@H]1N[C@H]1C=C(CO)[C@@H](O)[C@H](O)[C@H]1O (stereo partly specified) [ACARBOSE] ) is 0.43

# log10(half-life) (molecule: CCNCC(O)c1cccc(O)c1 (stereo unspecified) [ETILEFRINE] ) is 0.34

# log10(half-life) (molecule: Cc1ncc2n1-c1ccc(Cl)cc1C(c1ccccc1F)=NC2 [MIDAZOLAM] ) is 0.49

# log10(half-life) (molecule: CCCCNc1cc(C(=O)O)cc(S(N)(=O)=O)c1Oc1ccccc1 [BUMETANIDE] ) is 0.08

# log10(half-life) (molecule: CN1C2CCCC1CC(NC(=O)c1nn(C)c3ccccc13)C2 (stereo unspecified) [GRANISETRON] ) is 0.72

# log10(half-life) (molecule: Cc1ccnc2c1NC(=O)c1cccnc1N2C1CC1 [NEVIRAPINE] ) is 1.72

# log10(half-life) (molecule: CC(C)NCC(O)COc1ccc(CCOCC2CC2)cc1 (stereo unspecified) [BETAXOLOL] ) is 1.23

# log10(half-life) (molecule: COC(=O)C1=C(C)NC(C)=C(C(=O)OC(C)C)C1c1cccc2nonc12 (stereo unspecified) [ISRADIPINE] ) is 0.52

# log10(half-life) (molecule: Cc1cn([C@H]2C[C@H](N=[N+]=[N-])[C@@H](CO)O2)c(=O)[nH]c1=O [ZIDOVUDINE] ) is 0.11
